- Tested on: 292921-168-R-J2-PDC complex spheroid growth;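 further: spheroids exposed to compounds for seven days after three days of growth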
- assaySummary: Anticancer human tumor 292921-168-R-J2-PDC patient-derived pancreatic carcinoma cell line growth inhibition [AhR]; active means viability on the fitted dose curve at most 10% of control; inactive means the rest
- conditionInfo: second compound 0.316 µM; first compound 10 µM
Labels: active, inactive

* COc1cc(Nc2ncc3c(n2)-c2ccc(Cl)cc2C(c2c(F)cccc2OC)=NC3)ccc1C(=O)O + Cc1cncc(-c2nc(NCCc3c[nH]c4ccccc34)c3ncn(C(C)C)c3n2)c1 | inactive
* O=C(C=Cc1cccc(S(=O)(=O)Nc2ccccc2)c1)NO + Cc1cncc(-c2nc(NCCc3c[nH]c4ccccc34)c3ncn(C(C)C)c3n2)c1 | active
* COc1cc(C2c3cc4c(cc3C(OC3OC5COC(C)OC5C(O)C3O)C3COC(=O)C23)OCO4)cc(OC)c1O (stereo not drawn) + CC(CO)NC(=O)c1cc(-c2ccc(Cl)cc2)nn(-c2cnn(C)c2)c1=O | inactive
